# Test method notes: Inhibition of human BCL-2 overexpressed in mouse FDC-P1 cells assessed as cell viability after 24 hrs by Cell Titer Glo assay
Can you tell me pIC50 for the items I'm about to list?
One number for each entry, as −log10 of the molar value.

The examples below pair each entry with its known result.
INSERT INTO assay_data (substance_smiles, test_readout, numeric_value) VALUES
  ('O=C(NS(=O)(=O)c1ccc(N[C@H](CCN2CCOCC2)CSc2ccccc2)c(S(=O)(=O)C(F)(F)F)c1)c1ccc(N2CCN(Cc3ccccc3-c3ccc(Cl)cc3)CC2)cc1', 'pIC50', 7.85),
  ('CN(C)C(=O)COc1cccc(-c2ccc(Cl)cc2)c1CN1CCN(c2ccc(C(=O)NS(=O)(=O)c3ccc(N[C@H](CCN4CCOCC4)CSc4ccccc4)c(S(=O)(=O)C(F)(F)F)c3)cc2)CC1', 'pIC50', 7.35),
  ('N#CC1(Cc2ccccc2-c2ccc(Cl)cc2)CCN(c2ccc(C(=O)NS(=O)(=O)c3ccc(N[C@H](CCN4CCOCC4)CSc4ccccc4)c(S(=O)(=O)C(F)(F)F)c3)cc2)CC1', 'pIC50', 6.26);

For every listed record, write down its pIC50.
1. O=C(NS(=O)(=O)c1ccc(N[C@H](CCN2CCOCC2)CSc2ccccc2)c(S(=O)(=O)C(F)(F)F)c1)c1ccc(N2CCC([S@@+]([O-])c3ccccc3-c3ccc(Cl)cc3)CC2)cc1
2. O=C(NS(=O)(=O)c1ccc(N[C@H](CCN2CCOCC2)CSc2ccccc2)c(S(=O)(=O)C(F)(F)F)c1)c1cnc(N2CCN(Cc3ccccc3-c3ccc(Cl)cc3)CC2)nc1
3. CN(C)CCOc1cccc(-c2ccc(Cl)cc2)c1CN1CCN(c2ccc(C(=O)NS(=O)(=O)c3ccc(N[C@H](CCN4CCOCC4)CSc4ccccc4)c(S(=O)(=O)C(F)(F)F)c3)cc2)CC1

Return:
[6.36, 6.47, 8.40]

For every listed record, write down its pIC50.
1. CN(C)CCOc1ccc(-c2ccc(Cl)cc2)c(CN2CCN(c3ccc(C(=O)NS(=O)(=O)c4ccc(N[C@H](CCN5CCOCC5)CSc5ccccc5)c(S(=O)(=O)C(F)(F)F)c4)cc3)CC2)c1
2. CN(C)C(=O)COc1ccc(-c2ccc(Cl)cc2)c(CN2CCN(c3ccc(C(=O)NS(=O)(=O)c4ccc(N[C@H](CCN5CCOCC5)CSc5ccccc5)c(S(=O)(=O)C(F)(F)F)c4)cc3)CC2)c1

Return:
7.66
6.73

====

Can you tell me IC50 for the items I'm about to list?
# Test method notes: Inhibition of human BCL-xL overexpressed in mouse FDC-P1 cells assessed as cell viability after 24 hrs by Cell Titer Glo assay
Answers are plain numbers, in nM.

For every listed record, write down its IC50.
1. CN(C)CCOc1ccc(-c2ccc(Cl)cc2)c(CN2CCN(c3ccc(C(=O)NS(=O)(=O)c4ccc(N[C@H](CCN5CCOCC5)CSc5ccccc5)c(S(=O)(=O)C(F)(F)F)c4)cc3)CC2)c1
2. N#CC1(Cc2ccccc2-c2ccc(Cl)cc2)CCN(c2ccc(C(=O)NS(=O)(=O)c3ccc(N[C@H](CCN4CCOCC4)CSc4ccccc4)c(S(=O)(=O)C(F)(F)F)c3)cc2)CC1
3. O=C(NS(=O)(=O)c1ccc(N[C@H](CCN2CCOCC2)CSc2ccccc2)c(S(=O)(=O)C(F)(F)F)c1)c1ccc(N2CCC([S@@+]([O-])c3ccccc3-c3ccc(Cl)cc3)CC2)cc1

Return:
[138, 2820, 1720]

====

Can you tell me IC50 for the items I'm about to list?
# Test method notes: Inhibition of human BCL-xL overexpressed in mouse FDC-P1 cells assessed as cell viability after 24 hrs by Cell Titer Glo assay
Note to self: number, then unit, no commentary.

The examples below pair each entry with its known result.
INSERT INTO assay_data (substance_smiles, result) VALUES
  ('O=C(NS(=O)(=O)c1ccc(N[C@H](CCN2CCOCC2)CSc2ccccc2)c(S(=O)(=O)C(F)(F)F)c1)c1ccc(N2CCN(Cc3ccccc3-c3ccc(Cl)cc3)CC2)cc1', '64 nM'),
  ('CN(C)CCOc1cccc(-c2ccc(Cl)cc2)c1CN1CCN(c2ccc(C(=O)NS(=O)(=O)c3ccc(N[C@H](CCN4CCOCC4)CSc4ccccc4)c(S(=O)(=O)C(F)(F)F)c3)cc2)CC1', '33 nM'),
  ('CN(C)C(=O)COc1ccc(-c2ccc(Cl)cc2)c(CN2CCN(c3ccc(C(=O)NS(=O)(=O)c4ccc(N[C@H](CCN5CCOCC5)CSc5ccccc5)c(S(=O)(=O)C(F)(F)F)c4)cc3)CC2)c1', '2090 nM'),
  ('CN(C)C(=O)COc1cccc(-c2ccc(Cl)cc2)c1CN1CCN(c2ccc(C(=O)NS(=O)(=O)c3ccc(N[C@H](CCN4CCOCC4)CSc4ccccc4)c(S(=O)(=O)C(F)(F)F)c3)cc2)CC1', '226 nM');

Next up:
Enquiry: // query IC50 value for entry O=C(NS(=O)(=O)c1ccc(N[C@H](CCN2CCOCC2)CSc2ccccc2)c(S(=O)(=O)C(F)(F)F)c1)c1cnc(N2CCN(Cc3ccccc3-c3ccc(Cl)cc3)CC2)nc1
Return: 2090 nM

Where do these numbers come from? They come from BindingDB's records for doi:10.1016/j.bmcl.2014.05.036.
